Give measured Kd for each item. Keep answers brief.
# Study system: dGA (tau 297-390) (human, UniProt P10636 614-707)
# Sequence (P10636 614-707 limits assumed): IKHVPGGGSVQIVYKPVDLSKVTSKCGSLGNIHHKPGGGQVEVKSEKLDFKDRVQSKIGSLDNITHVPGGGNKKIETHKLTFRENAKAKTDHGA
# Assay remarks: SPR, scAb captured, tau analyte
# Experimental: The capture antibody was diluted 1/100 in 10 mM Sodium acetate buffer pH 5.0 and passed over the activated chip surface for a period of at least 420 s. Final ligand immobilisation levels over 12,000 RU were deemed to be satisfactory. […] The single cycle kinetics protocol was similar and utilised the same level of scAb capture. […] Binding responses were analysed in Biacore X100 evaluation software and data fitted to a 1:1 binding model to obtain kinetic and affinity characterisation.

| Binder | Kd |
| --- | --- |
| NS2A1 scAb (scFv, not shown: small tags and cut ends, scAb) scFv: QVQLQESGPSLVKPSQTLSLTCTVSGFSLSTNSVGWVRQAPGKAPEWVAGIDTDGEEGFNPVLKSRLSITRDTSKSQVSLSLSNVTSEDTAVYYCGRSYRTDGLAYGYVQAIDYWGPGLLVTISSEGKSSGASGESKVDDQSVLTQPSSVSGSPGQTVSITCSGSYIGSSGVGWFQQLPGSGLRTIIVASDGRPSGVPDGFSMSKSGNTATLTISSLQAEDEADYFCGSSDRTQYTGLFGSGTRLTVLG | 5.4 nM |

Proceeding to the next binder to report its Kd.
For the binder S1D12 scAb (scFv, not shown: small tags and cut ends, scAb) scFv: QVQLQESGPSLVKPSQTLSLTCTVSGFSLNNNAVGWVRQAPGKVPESLVGCSSDGTCYYNSALKSRLDITRDTSKNQISLSLSSVTTDDAAVYYCTRGHYSIYGYDYLGTIDYWGPGLLVTVSSEGKSSGASGESKVDDQAVLTQPSSVSGSLGQRVSITCSGSSSNVGGGNSVGWYQHLPGSGLKTIIYDTNSRPSGVPDRFSGSRSGNTATLTINSLQAEDEGDYYCVTGDSTTHDDLVGSGTRLTVLG , report Kd.
0.344 nM
